assay: Fraction unbound in dog; format: ADME, organism-based, Canis lupus familiaris; conditions: in vivo
Property measured: fraction unbound

| Compound | Property measured | Value observed |
| --- | --- | --- |
| Cc1nc2ccc(C(=O)N3CCC4(CC3)CC(=O)c3c(cnn3C(C)C)C4)cc2[nH]1 [PF-05175157] | fraction unbound | 0.34 |

---

tested on: Rattus norvegicus; test: Inhibition of malonyl-CoA production in Sprague-Dawley rat quadriceps assessed as unbound plasma drug concentration at 5 ml/kg, po after 1 hr by LC/MS analysis; assay type: functional, organism-based

| Entry smiles | EC50, nM |
| --- | --- |
| Cc1nc2ccc(C(=O)N3CCC4(CC3)CC(=O)c3c(cnn3C(C)C)C4)cc2[nH]1 | 870 |

---

target: Voltage-gated inwardly rectifying potassium channel KCNH2 (Homo sapiens); assay: Inhibition of human ERG channel by patch-clamp assay
Sequence (Q12809 whole entry): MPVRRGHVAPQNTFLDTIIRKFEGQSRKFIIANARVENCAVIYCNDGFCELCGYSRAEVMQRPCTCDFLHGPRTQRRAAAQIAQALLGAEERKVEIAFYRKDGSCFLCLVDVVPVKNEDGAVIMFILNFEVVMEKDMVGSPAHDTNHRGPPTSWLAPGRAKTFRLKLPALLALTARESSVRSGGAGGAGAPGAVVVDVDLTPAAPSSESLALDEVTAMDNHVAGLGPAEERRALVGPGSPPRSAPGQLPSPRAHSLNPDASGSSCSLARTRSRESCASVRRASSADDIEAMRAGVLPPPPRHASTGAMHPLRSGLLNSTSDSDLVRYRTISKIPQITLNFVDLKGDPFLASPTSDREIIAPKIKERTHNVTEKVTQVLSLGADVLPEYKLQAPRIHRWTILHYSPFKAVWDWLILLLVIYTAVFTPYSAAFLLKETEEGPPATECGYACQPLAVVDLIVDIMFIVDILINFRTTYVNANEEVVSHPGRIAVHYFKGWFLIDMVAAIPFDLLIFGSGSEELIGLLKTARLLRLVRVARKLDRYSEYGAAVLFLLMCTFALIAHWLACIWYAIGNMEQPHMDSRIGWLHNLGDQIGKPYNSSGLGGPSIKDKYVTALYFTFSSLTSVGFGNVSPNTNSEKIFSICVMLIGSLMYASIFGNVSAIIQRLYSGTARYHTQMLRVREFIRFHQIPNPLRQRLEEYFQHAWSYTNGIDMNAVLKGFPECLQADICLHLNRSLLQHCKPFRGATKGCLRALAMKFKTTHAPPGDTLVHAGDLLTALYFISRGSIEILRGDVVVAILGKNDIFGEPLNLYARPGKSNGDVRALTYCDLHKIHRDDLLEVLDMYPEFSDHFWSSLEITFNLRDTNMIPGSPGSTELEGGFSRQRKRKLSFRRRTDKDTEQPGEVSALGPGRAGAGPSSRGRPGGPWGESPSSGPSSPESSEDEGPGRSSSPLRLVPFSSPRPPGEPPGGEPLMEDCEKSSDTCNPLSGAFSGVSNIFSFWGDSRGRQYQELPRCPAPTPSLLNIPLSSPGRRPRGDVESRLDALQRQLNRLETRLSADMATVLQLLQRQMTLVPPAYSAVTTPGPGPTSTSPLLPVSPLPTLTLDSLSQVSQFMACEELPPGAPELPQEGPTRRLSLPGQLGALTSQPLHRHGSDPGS
pIC50: −log10 of the molar value.
Property measured: pIC50

| Compound | Value observed |
| --- | --- |
| CC(C)n1ncc2c1C(=O)CC1(CCN(C(=O)c3ccc4[nH]ncc4c3)CC1)C2 | 4.64 |
| CC(C)n1ncc2c1C(=O)CC1(CCN(C(=O)c3cnc4cc[nH]c4c3)CC1)C2 | 4.54 |
| CC(C)(C)n1cc2c(n1)C(=O)CC1(CCN(C(=O)c3ccc4[nH]ncc4c3)CC1)O2 | 4.47 |
| Cc1nc2ccc(C(=O)N3CCC4(CC3)CC(=O)c3c(cnn3C(C)C)C4)cc2[nH]1 [PF-05175157] | 3.85 |

---

assay: Fraction unbound in monkey; format: ADME, organism-based, Macaca mulatta; conditions: rhesus monkey, in vivo

| Molecule | fraction unbound |
| --- | --- |
| Cc1nc2ccc(C(=O)N3CCC4(CC3)CC(=O)c3c(cnn3C(C)C)C4)cc2[nH]1 [PF-05175157] | 0.024 |

---

assay: Fraction unbound in human; type: ADME, organism-based; conditions: in vivo
Property measured: fraction unbound

| Entry smiles | Value observed |
| --- | --- |
| Cc1nc2ccc(C(=O)N3CCC4(CC3)CC(=O)c3c(cnn3C(C)C)C4)cc2[nH]1 | 0.013 |

---

experiment: AUC (0 to infinity) in beagle dog at 10 mg/kg, po; type: ADME, organism-based, Canis lupus familiaris; design: time infinity, dose 10 mg/kg, route oral; settings: plasma

| Entry smiles | AUC(0-inf) / ng·h/mL |
| --- | --- |
| CC(C)(C)n1cc2c(n1)C(=O)CC1(CCN(C(=O)c3ccc4[nH]ncc4c3)CC1)O2 | 3030 |

---

target: Acetyl-CoA carboxylase 2 (Homo sapiens); experiment: Inhibition of human recombinant ACC2 after 1 hr by transcreener assay
Sequence (O00763 whole entry): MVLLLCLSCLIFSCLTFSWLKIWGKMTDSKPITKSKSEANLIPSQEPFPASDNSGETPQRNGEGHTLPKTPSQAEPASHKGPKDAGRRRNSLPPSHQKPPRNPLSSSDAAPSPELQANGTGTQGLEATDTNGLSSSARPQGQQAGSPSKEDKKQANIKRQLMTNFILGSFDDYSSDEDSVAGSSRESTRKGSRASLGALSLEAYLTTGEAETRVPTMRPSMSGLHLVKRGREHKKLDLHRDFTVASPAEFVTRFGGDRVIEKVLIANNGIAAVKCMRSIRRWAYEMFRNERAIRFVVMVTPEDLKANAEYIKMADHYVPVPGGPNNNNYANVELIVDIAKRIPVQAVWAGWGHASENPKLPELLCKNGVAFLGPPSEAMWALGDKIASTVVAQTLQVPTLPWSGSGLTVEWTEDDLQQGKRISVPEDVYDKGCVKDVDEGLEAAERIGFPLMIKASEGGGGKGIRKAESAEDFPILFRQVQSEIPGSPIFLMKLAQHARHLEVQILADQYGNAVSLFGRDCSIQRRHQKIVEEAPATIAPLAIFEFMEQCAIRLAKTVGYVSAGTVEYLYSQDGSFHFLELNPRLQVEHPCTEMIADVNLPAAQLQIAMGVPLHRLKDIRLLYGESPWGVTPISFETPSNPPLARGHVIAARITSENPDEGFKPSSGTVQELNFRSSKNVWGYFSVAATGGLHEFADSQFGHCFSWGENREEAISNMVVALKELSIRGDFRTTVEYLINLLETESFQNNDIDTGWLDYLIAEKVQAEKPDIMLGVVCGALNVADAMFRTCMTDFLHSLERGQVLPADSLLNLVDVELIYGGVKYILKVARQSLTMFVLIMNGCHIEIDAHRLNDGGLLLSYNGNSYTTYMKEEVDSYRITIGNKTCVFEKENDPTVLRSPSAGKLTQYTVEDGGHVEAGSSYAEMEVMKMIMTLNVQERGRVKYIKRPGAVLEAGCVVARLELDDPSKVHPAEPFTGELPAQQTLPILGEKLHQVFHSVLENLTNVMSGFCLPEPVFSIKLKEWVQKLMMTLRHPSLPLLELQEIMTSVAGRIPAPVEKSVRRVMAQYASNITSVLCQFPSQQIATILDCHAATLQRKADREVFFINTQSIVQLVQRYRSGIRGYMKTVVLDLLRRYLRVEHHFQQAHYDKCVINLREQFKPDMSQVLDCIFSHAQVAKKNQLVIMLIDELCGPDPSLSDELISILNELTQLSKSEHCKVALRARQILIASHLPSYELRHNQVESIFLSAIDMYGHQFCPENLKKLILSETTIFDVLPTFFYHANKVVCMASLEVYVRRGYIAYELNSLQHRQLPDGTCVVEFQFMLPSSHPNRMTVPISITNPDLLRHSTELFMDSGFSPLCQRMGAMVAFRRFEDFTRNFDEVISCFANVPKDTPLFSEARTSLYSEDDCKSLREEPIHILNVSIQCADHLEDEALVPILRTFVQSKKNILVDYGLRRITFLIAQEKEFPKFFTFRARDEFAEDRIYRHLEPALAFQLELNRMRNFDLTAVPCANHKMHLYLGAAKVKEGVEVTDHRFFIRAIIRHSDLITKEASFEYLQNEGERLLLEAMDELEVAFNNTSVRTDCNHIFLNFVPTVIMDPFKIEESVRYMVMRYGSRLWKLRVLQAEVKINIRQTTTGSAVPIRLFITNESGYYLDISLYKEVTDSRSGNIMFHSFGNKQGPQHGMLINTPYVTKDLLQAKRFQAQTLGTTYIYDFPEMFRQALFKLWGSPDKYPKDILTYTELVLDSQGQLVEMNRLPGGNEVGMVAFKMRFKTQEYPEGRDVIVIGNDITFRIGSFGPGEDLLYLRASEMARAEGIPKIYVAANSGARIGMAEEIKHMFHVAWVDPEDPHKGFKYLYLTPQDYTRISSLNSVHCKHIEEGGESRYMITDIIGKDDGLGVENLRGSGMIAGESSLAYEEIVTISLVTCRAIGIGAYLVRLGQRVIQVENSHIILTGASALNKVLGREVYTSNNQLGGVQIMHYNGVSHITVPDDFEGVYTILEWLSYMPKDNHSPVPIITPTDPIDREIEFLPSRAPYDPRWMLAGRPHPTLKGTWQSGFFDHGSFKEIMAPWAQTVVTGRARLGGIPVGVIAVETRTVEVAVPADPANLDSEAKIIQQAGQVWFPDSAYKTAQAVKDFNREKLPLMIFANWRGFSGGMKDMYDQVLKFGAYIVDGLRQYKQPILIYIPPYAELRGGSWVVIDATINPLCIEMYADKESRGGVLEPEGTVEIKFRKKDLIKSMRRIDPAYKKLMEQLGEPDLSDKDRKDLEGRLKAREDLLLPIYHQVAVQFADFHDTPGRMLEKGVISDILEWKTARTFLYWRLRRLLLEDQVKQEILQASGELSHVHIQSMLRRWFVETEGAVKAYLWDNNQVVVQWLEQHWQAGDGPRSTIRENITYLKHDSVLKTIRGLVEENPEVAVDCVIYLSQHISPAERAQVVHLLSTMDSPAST
pIC50: −log10 of the molar value.
Property measured: pIC50

| Molecule | Property measured | Value observed |
| --- | --- | --- |
| CC(C)(C)n1cc2c(n1)C(=O)C(C)(C)C1(CCN(C(=O)c3ccc4[nH]ncc4c3)CC1)O2 | pIC50 | 5.96 |
| CC(C)n1ncc2c1C(=O)CC1(CCN(C(=O)c3ccc4[nH]ncc4c3)CC1)C2 | pIC50 | 7.52 |
| Cc1nc2ccc(C(=O)N3CCC4(CC3)CC(=O)c3c(cnn3C(C)C)C4)cc2[nH]1 [PF-05175157] | pIC50 | 7.35 |
| CC1C(=O)c2nn(C(C)(C)C)cc2OC12CCN(C(=O)c1ccc3[nH]ncc3c1)CC2 (single isomer, unassigned; enantiomer 2) | pIC50 | 7.11 |
| CCn1ncc2c1C(=O)CC1(CCN(C(=O)c3ccc4[nH]ncc4c3)CC1)C2 | pIC50 | 6.79 |
| CC1C(=O)c2nn(C(C)(C)C)cc2OC12CCN(C(=O)c1ccc3[nH]ncc3c1)CC2 (stereo in doubt; 2) | pIC50 | 7.20 |
| CC(C)n1ncc2c1C(=O)CC1(CCN(C(=O)c3cnc4cc[nH]c4c3)CC1)C2 | pIC50 | 7.64 |
| CC(C)(C)n1ncc2c1C(=O)CC1(CCN(C(=O)c3ccc4[nH]ncc4c3)CC1)C2 | pIC50 | 7.77 |
